Taken from patent US20080008707A1.

So I've got a bunch of binders here, and I need their % inhibition of D93 binding to dn-collagen IV, peptide 1 µM values.
# Assay Target: D93, recombinant humanized IgG1 kappa antibody targeting denatured-collagen
# Protocol Summary: competition ELISA on coated human dn-collagen IV
Square brackets hold non-standard residues; d marks the D form. Ends that are not written are not given here. Hyp = O=C(O)[C@@H]1C[C@@H](O)CN1
State the result as a value with its unit after it.

Sample records with % inhibition of D93 binding to dn-collagen IV, peptide 1 µM:
>>> test_value("GPXGPXG (contains hydroxyproline ('where P is hydroxyproline'); positions marked in the tables but lost in this text) [synthetic peptide No. 15, GPPGPPG (SEQ ID NO: 32)]")
"8%"
>>> test_value("L[Hyp]GF[Hyp]G [synthetic peptide No. 19, LPGFPG (SEQ ID NO: 23)]")
"10.5%"
>>> test_value("LPGPPGPPG (also: hydroxyproline at marked P positions, if any, marking lost) [synthetic peptide No. 18, … (SEQ ID NO: 22)]")
"6%"
>>> test_value("CTWPRHHTTDALL [non-collagen control peptide No. 6, … (SEQ ID NO: 39)]")
"4.5%"
>>> test_value("PGP[Hyp]GP[Hyp]GPY [synthetic peptide No. 4, … (SEQ ID NO: 28)]")
"33.5%"

Kindly indicate its recorded % inhibition of D93 binding to dn-collagen IV, peptide 1 µM. Item: L[Hyp]GS[Hyp]G [synthetic peptide No. 10, LPGSPG (SEQ ID NO: 26)]
9.5%
